Listed next: entries and their corresponding MIC.
Tested on: S. aureus 180
assay_protocol: MIC, twofold microdilution, clinical strain
Type: cell-based
experimental_conditions: Staphylococcus aureus, 18 h

>  <compound_structure_string>
O=C(O)c1cn(C2CC2)c2cc(N3CCN(C(=O)CCCCBr)CC3)c(F)cc2c1=O

>  <MIC / µg/mL>
0.8

$$$$
>  <compound_structure_string>
O=C(O)c1cn(C2CC2)c2cc(N3CCN(CCCCCC(=O)N4CCN(c5cc6c(cc5F)c(=O)c(C(=O)O)cn6C5CC5)CC4)CC3)c(F)cc2c1=O

>  <MIC / µg/mL>
1

$$$$
>  <compound_structure_string>
O=C(O)c1cn(C2CC2)c2cc(N3CCN(C(=O)CC(F)(F)F)CC3)c(F)cc2c1=O

>  <MIC / µg/mL>
0.5

$$$$
>  <compound_structure_string>
O=C(O)c1cn(C2CC2)c2cc(N3CCN(C(=O)CCCBr)CC3)c(F)cc2c1=O

>  <MIC / µg/mL>
0.8

$$$$
>  <compound_structure_string>
O=C(O)c1cn(C2CC2)c2cc(N3CCN(C(=O)CCCCCCl)CC3)c(F)cc2c1=O

>  <MIC / µg/mL>
0.5

$$$$
>  <compound_structure_string>
O=C(O)c1cn(C2CC2)c2cc(N3CCN(CCCCC(=O)N4CCN(c5cc6c(cc5F)c(=O)c(C(=O)O)cn6C5CC5)CC4)CC3)c(F)cc2c1=O

>  <MIC / µg/mL>
1.6

$$$$
>  <compound_structure_string>
O=C(O)c1cn(C2CC2)c2cc(N3CCN(C(=O)CCCl)CC3)c(F)cc2c1=O

>  <MIC / µg/mL>
0.2

$$$$
